assay: in vivo; settings: Beagle, dog, po, 3 mg/kg
measured metric: Tmax (h)
// note: answer is a bare numeric in h

State the recorded Tmax for this entry: CO[C@@H](C(=O)NC1CCNCC1)c1ccccc1
1

----------
assay: in vivo; details: Balb/C, mouse, iv, 1 mg/kg
measured metric: AUC (µM·h)
Your answer should be a plain number; it is taken to be in µM·h.

Field request: AUC | item: CO[C@@H](C(=O)NC1CCNCC1)c1ccccc1 [Compound 1085]
1.73

----------
tested on: MYC431; experiment: microbe, parasite or virus in culture; format: cell-based, M. tuberculosis; details: Mycobacterium tuberculosis, THP-1, 90 h
measured metric: EC50
A complete answer gives the number and then names the unit.

Fill blank: measured EC50 of the compound CO[C@@H](C(=O)NC1CCNCC1)c1ccccc1 is ____.
0.1 nM
